Here, each record is paired with measured melting point data.

// below: answered molecules
[[record]]
molecule = "O=c1cc(-c2ccc(-c3nnc(-c4ccccn4)o3)cc2)oc2ccccc12"
result = "270 to 271 °C"

[[record]]
molecule = "Cc1ccccc1-c1nnc(-c2ccc(-c3cc(=O)c4ccccc4o3)cc2)o1"
result = "260 to 261 °C"


Prompt line: I would be grateful if you could share the reported melting point for "COc1cccc(-c2nnc(-c3ccc(-c4cc(=O)c5ccccc5o4)cc3)o2)c1" .
Response line: 299 to 300 °C

----------
Parameter Measured: melting point

[[record]]
molecule = "O=c1cc(-c2ccc(-c3nnc(-c4ccc([N+](=O)[O-])cc4)o3)cc2)oc2ccccc12 [Compound 10]"
result = "304 to 305 °C"


Prompt line: I would be grateful if you could share the reported melting point for COc1ccc(-c2nnc(-c3ccc(-c4cc(=O)c5ccccc5o4)cc3)o2)cc1 [Compound 13] .
Response line: 307 to 308 °C

Prompt line: I would be grateful if you could share the reported melting point for O=c1cc(-c2ccc(-c3nnc(-c4cccc(Cl)c4)o3)cc2)oc2ccccc12 [Compound 2] .
Response line: 282 to 283 °C

Prompt line: I would be grateful if you could share the reported melting point for O=c1cc(-c2ccc(-c3nnc(-c4cccnc4)o3)cc2)oc2ccccc12 [Compound 17] .
Response line: 280 to 281 °C

Prompt line: I would be grateful if you could share the reported melting point for COc1ccccc1-c1nnc(-c2ccc(-c3cc(=O)c4ccccc4o3)cc2)o1 [Compound 15] .
Response line: 286 to 287 °C

Prompt line: I would be grateful if you could share the reported melting point for O=c1cc(-c2ccc(-c3nnc(-c4ccc(Cl)cc4)o3)cc2)oc2ccccc12 [Compound 1] .
Response line: 288 to 289 °C

Prompt line: I would be grateful if you could share the reported melting point for O=c1cc(-c2ccc(-c3nnc(-c4ccccc4)o3)cc2)oc2ccccc12 [Compound 19] .
Response line: 280 to 281 °C

Prompt line: I would be grateful if you could share the reported melting point for O=c1cc(-c2ccc(-c3nnc(-c4ccncc4)o3)cc2)oc2ccccc12 [Compound 18] .
Response line: 288 to 289 °C

Prompt line: I would be grateful if you could share the reported melting point for O=c1cc(-c2ccc(-c3nnc(-c4ccccc4F)o3)cc2)oc2ccccc12 [Compound 6] .
Response line: 291 to 292 °C

Prompt line: I would be grateful if you could share the reported melting point for O=c1cc(-c2ccc(-c3nnc(-c4cccc([N+](=O)[O-])c4)o3)cc2)oc2ccccc12 [Compound 11] .
Response line: 296 to 297 °C
